Origin of measurements: patent US20250270301A1

target desc: monomeric P301S 2N4R tau, pHrodo-labelled (human, UniProt P10636 1-758, pHrodo Red maleimide label)
Sequence (P10636 other isoform, or with tags, fused parts or gaps P301S P301S): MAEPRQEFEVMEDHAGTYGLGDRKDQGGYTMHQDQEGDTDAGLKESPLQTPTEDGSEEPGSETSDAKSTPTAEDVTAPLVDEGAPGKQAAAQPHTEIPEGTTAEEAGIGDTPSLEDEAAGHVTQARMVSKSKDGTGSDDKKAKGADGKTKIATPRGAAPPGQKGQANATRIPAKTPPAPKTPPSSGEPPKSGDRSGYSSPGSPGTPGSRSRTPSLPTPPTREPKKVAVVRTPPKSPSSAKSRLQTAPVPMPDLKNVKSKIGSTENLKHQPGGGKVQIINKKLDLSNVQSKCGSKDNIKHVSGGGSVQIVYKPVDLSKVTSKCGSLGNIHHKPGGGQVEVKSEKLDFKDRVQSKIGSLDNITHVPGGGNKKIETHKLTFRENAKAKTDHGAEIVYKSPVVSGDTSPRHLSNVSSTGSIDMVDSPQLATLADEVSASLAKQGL
assay text: cell-based or functional assay
experimental readout: inhibition of monomeric tau uptake into human astrocytes

Data point: #44_VH4VK4_H04/pVL (antibody, V domains shown, also called VH04/pVL; Clone VH4_H04) VH: QVQLQESGPGLVKPSETLSLTCTVSGIDLSSYAMAWVRQAPGKGLEWIGCIDRRGGTFYASWVKGRFTISKDTSKTTVDLQMTSLTAEDTATYFCARDAGSFHPWGQGTLVTVSS VL: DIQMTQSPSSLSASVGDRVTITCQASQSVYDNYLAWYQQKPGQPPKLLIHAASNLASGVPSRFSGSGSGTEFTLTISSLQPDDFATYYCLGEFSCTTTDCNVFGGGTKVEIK ; inhibition of monomeric tau uptake into human astrocytes = 35.6%
